Parameter: MIC Streptococcus pyogenes (GC 4563). Scope: all listed entries.
- System: Streptococcus sp.
- test_protocol: In vitro antibacterial evaluation: minimum inhibitory concentration (MIC), broth dilution method
- Type: cell-based
- run_parameters: Streptococcus pyogenes (GC 4563); broth dilution, 18 hours at 35° C.
Numbered stars: 1 amine (or outer) side, 2 acyl side, 3 side chain; on linkers, the order of the positions; unused ones are H or OH. Square brackets hold non-standard residues; d marks the D form. Peptide text beside a SMILES is read from it. * marks the point of attachment. ξ: configuration not given here. X1 = N=C1NCC(C(O)C(N[*:1])C(=O)[*:2])N1C1OC(CO)C(O)C(O)C1O; ξEnduracididine(βξ-OH,4'ξ) = N=C1NCC(C(O)C(N)C(=O)O)N1; X2 = OCC1OC(OC2C(CO)OC(*)C(O)C2O)C(O)C(O)C1O; ξCha(3ξ-Me) = CC(C1CCCCC1)C(N)C(=O)O
Could you give the number and then its unit, please?

# molecule, MIC Streptococcus pyogenes (GC 4563)
measured = [
    ("CC(C1CCCCC1)C1NC(=O)CNC(=O)C(CO)NC(=O)C(C(O)C2CNC(=N)N2C2OC(CO)C(O)C(O)C2O)NC(=O)C(C(O)C2CNC(=N)N2)NC(=O)C(Cc2ccc(OC3OC(CO)C(OC4OC(CO)C(O)C(O)C4O)C(O)C3O)cc2)NC1=O (stereo not drawn) [Example 51] (cyclo(G[ξCha(3ξ-Me)]Y(X2)[ξEnduracididine(βξ-OH,4'ξ)][X1]S); configuration not given here)", "8 µg/mL"),
    ("CC(c1ccccc1)C1NC(=O)CNC(=O)C(CO)NC(=O)C(C(O)C2CNC(=N)N2C2OC(CO)C(O)C(O)C2O)NC(=O)C(C(O)C2CNC(=N)N2)NC(=O)C(Cc2ccc3oc(-c4cccc([N+](=O)[O-])c4)nc3c2)NC1=O (stereo not drawn)", "8 µg/mL"),
]

Recorded result, CC(c1ccccc1)C1NC(=O)CNC(=O)C(CO)NC(=O)C(CC2CN(Cc3ccccc3)C(=N)N2C2OC(CO)C(O)C(O)C2O)NC(=O)C(CC2CNC(=N)N2)NC(=O)C(Cc2ccc(OC3OC(CO)C(OC4OC5COC6(OC5C(O)C4O)C4CC5CC(C4)CC6C5)C(O)C3O)cc2)NC1=O (stereo not drawn) , MIC Streptococcus pyogenes (GC 4563): 8 µg/mL

====

Parameter: MIC Coagulase Negative Staphylococcus (GC 4549). Scope: all listed entries.
- System: Staphylococcus sp.
- test_protocol: In vitro antibacterial evaluation: minimum inhibitory concentration (MIC), broth dilution method
- Type: cell-based
- run_parameters: strain GC 4549; broth dilution, 18 hours at 35° C.
Hi! Could you send only the number? It should be in µg/mL, unit omitted.

// known answers, use as guide
# compound, measured_result
records = [
    ("CC(c1ccccc1)C1NC(=O)CNC(=O)C(CO)NC(=O)C(C(O)C2CNC(=N)N2C2OC(CO)C(O)C(O)C2O)NC(=O)C(C(O)C2CNC(=N)N2)NC(=O)C(Cc2ccc(OC3OC(CO)C(OC4OC5COC(CC6CCN(C(=O)OCc7ccccc7)CC6)OC5C(O)C4O)C(O)C3O)cc2)NC1=O (stereo not drawn)", 1),
    ("CC(C)CC1OCC2OC(OC3C(CO)OC(Oc4ccc(CC5NC(=O)C(C(C)c6ccccc6)NC(=O)CNC(=O)C(CO)NC(=O)C(C(O)C6CNC(=N)N6C6OC(CO)C(O)C(O)C6O)NC(=O)C(C(O)C6CNC(=N)N6)NC5=O)cc4)C(O)C3O)C(O)C(O)C2O1 (stereo not drawn)", 1),
]

Recorded result, CCCCCCCC1OCC2OC(OC3C(CO)OC(Oc4ccc(CC5NC(=O)C(C(C)c6ccccc6)NC(=O)CNC(=O)C(CO)NC(=O)C(C(O)C6CNC(=N)N6C6OC(CO)C(O)C(O)C6O)NC(=O)C(C(O)C6CNC(=N)N6)NC5=O)cc4)C(O)C3O)C(O)C(O)C2O1 (stereo not drawn) , MIC Coagulase Negative Staphylococcus (GC 4549): 1

Recorded result, CC(c1ccccc1)C1NC(=O)CNC(=O)C(CO)NC(=O)C(C(O)C2CNC(=N)N2C2OC(CO)C(O)C(O)C2O)NC(=O)C(C(O)C2CNC(=N)N2)NC(=O)C(Cc2ccc(OC3OC(CO)C(OC4OC5COC(c6ccc7c(c6)OCCO7)OC5C(O)C4O)C(O)C3O)cc2)NC1=O (stereo not drawn) , MIC Coagulase Negative Staphylococcus (GC 4549): 1

Recorded result, CC(c1ccccc1)C1NC(=O)CNC(=O)C(CO)NC(=O)C(C(O)C2CNC(=N)N2C2OC(CO)C(O)C(O)C2O)NC(=O)C(C(O)C2CNC(=N)N2)NC(=O)C(Cc2ccc(OC3OC(CO)C(OC4OC5COC(CC67CC8CC(CC(C8)C6)C7)OC5C(O)C4O)C(O)C3O)cc2)NC1=O (stereo not drawn) , MIC Coagulase Negative Staphylococcus (GC 4549): 1

====

- System: Staphylococcus sp.
- test_protocol: In vitro antibacterial evaluation: minimum inhibitory concentration (MIC), broth dilution method
- Assay type: cell-based
- run_parameters: Staphylococcus aureus (ATCC 29213); 18 hours at 35° C.
outcome_measure: MIC Staphylococcus aureus (ATCC 29213) (µg/mL)
Hi! Could you send only the number? It should be in µg/mL, unit omitted.

# molecule, MIC Staphylococcus aureus (ATCC 29213) [µg/mL]
data = [
    ("CC(C)CC(=O)OC1C(O)C(CO)OC(OC2C(CO)OC(Oc3ccc(CC4NC(=O)C(C(C)c5ccc(Cl)cc5)NC(=O)CNC(=O)C(CO)NC(=O)C(C(O)C5CNC(=N)N5C5OC(CO)C(O)C(O)C5O)NC(=O)C(C(O)C5CNC(=N)N5)NC4=O)cc3)C(O)C2O)C1O (stereo not drawn) [Example 262b]", 4),
]

// switching to the query molecule
Recorded result, COc1ccc2cc(COCC3OC(OC4C(CO)OC(Oc5ccc(CC6NC(=O)C(C(C)c7ccccc7)NC(=O)CNC(=O)C(CO)NC(=O)C(CC7CNC(=N)N7C7OC(CO)C(O)C(O)C7O)NC(=O)C(CC7CNC(=N)N7)NC6=O)cc5)C(O)C4O)C(O)C(O)C3O)ccc2c1 (stereo not drawn) , MIC Staphylococcus aureus (ATCC 29213): 4

====

Parameter: MIC Streptococcus pyogenes (GC 4563). Scope: all listed entries.
- Test system: Streptococcus sp.
- test_protocol: In vitro antibacterial evaluation: minimum inhibitory concentration (MIC), broth dilution method
- Assay type: cell-based
- run_parameters: broth dilution, inoculum 5×10^5 CFU/mL, 18 hours at 35° C.

// known answers, use as guide
# compound, system_tested, outcome_measure, measured_result
rows = [
    ("CC(c1ccccc1)C1NC(=O)CNC(=O)C(CO)NC(=O)C(C(O)C2CNC(=N)N2C2OC(CO)C(O)C(O)C2O)NC(=O)C(C(O)C2CNC(=N)N2)NC(=O)C(Cc2ccc(OC3OC(CO)C(OC4OC5COC6(CCCCC6(C)C)OC5C(O)C4O)C(O)C3O)cc2)NC1=O (stereo not shown) [Example 205]", "Streptococcus sp.", "MIC Streptococcus pyogenes (GC 4563)", "<0.12 µg/mL"),
    ("CC(c1ccccc1)C1NC(=O)CNC(=O)C(CO)NC(=O)C(C(O)C2CNC(=N)N2C2OC(CO)C(O)C(O)C2O)NC(=O)C(C(O)C2CNC(=N)N2)NC(=O)C(Cc2ccc(OC3OC(CO)C(OC4OC5COC(c6ccc(-c7cccs7)cc6)OC5C(O)C4O)C(O)C3O)cc2)NC1=O (stereo not shown) [Example 163]", "Streptococcus sp.", "MIC Streptococcus pyogenes (GC 4563)", "<0.5 µg/mL"),
    ("CC(c1ccccc1)C1NC(=O)CNC(=O)C(CO)NC(=O)C(C(O)C2CNC(=N)N2C2OC(CO)C(O)C(O)C2O)NC(=O)C(C(O)C2CNC(=N)N2)NC(=O)C(Cc2ccc(OC3OC(CO)C(OC4OC5COC(c6cccc(Oc7ccccc7)c6)OC5C(O)C4O)C(O)C3O)cc2)NC1=O (stereo not shown) [Example 170]", "Streptococcus sp.", "MIC Streptococcus pyogenes (GC 4563)", "<0.06 µg/mL"),
    ("COc1ccc(Oc2cccc(C3OCC4OC(OC5C(CO)OC(Oc6ccc(CC7NC(=O)C(C(C)c8ccccc8)NC(=O)CNC(=O)C(CO)NC(=O)C(C(O)C8CNC(=N)N8C8OC(CO)C(O)C(O)C8O)NC(=O)C(C(O)C8CNC(=N)N8)NC7=O)cc6)C(O)C5O)C(O)C(O)C4O3)c2)cc1 (stereo not shown) [Example 180]", "Streptococcus sp.", "MIC Streptococcus pyogenes (GC 4563)", "<0.06 µg/mL"),
    ("CC(c1ccccc1)C1NC(=O)CNC(=O)C(CO)NC(=O)C(C(O)C2CNC(=N)N2C2OC(CO)C(O)C(O)C2O)NC(=O)C(C(O)C2CNC(=N)N2)NC(=O)C(Cc2ccc(OC3OC(CO)C(OC4OC(CO)C(O)C(OCc5ccc(OCc6ccccc6)cc5)C4O)C(O)C3O)cc2)NC1=O (stereo not shown) [Example 231c]", "Streptococcus sp.", "MIC Streptococcus pyogenes (GC 4563)", "<0.12 µg/mL"),
    ("Cc1ccc(Oc2ccc(C3OCC4OC(OC5C(CO)OC(Oc6ccc(CC7NC(=O)C(C(C)c8ccccc8)NC(=O)CNC(=O)C(CO)NC(=O)C(C(O)C8CNC(=N)N8C8OC(CO)C(O)C(O)C8O)NC(=O)C(C(O)C8CNC(=N)N8)NC7=O)cc6)C(O)C5O)C(O)C(O)C4O3)cc2)cc1 (stereo not shown) [Example 174]", "Streptococcus sp.", "MIC Streptococcus pyogenes (GC 4563)", "<0.06 µg/mL"),
]

Recorded result, CC(c1ccccc1)C1NC(=O)CNC(=O)C(CO)NC(=O)C(C(O)C2CNC(=N)N2C2OC(CO)C(O)C(O)C2O)NC(=O)C(C(O)C2CNC(=N)N2)NC(=O)C(Cc2ccc(OC3OC(CO)C(OC4OC5COC6(CC7CCC6(C)C7(C)C)OC5C(O)C4O)C(O)C3O)cc2)NC1=O (stereo not shown) [Example 215] , MIC Streptococcus pyogenes (GC 4563): <0.12 µg/mL
